# measurement-target: gB AD-2S1 peptide (human cytomegalovirus)
# experiment-description: SPR
# condition-info: both partners purified
List of pKd values.
Quick note: pKd values are minus log10 of concentrations in mol/L.

Reference set, count: 4
binder | test-value
MAB318 (antibody, V domains shown) VH: QVQLVQSGGGVVQPGTSLRLSCAASGFMFNTYNMHWVRQAPGKGLEWVAVISNDGTYKHFADSLKGRFSISRDDSKNTLYLHMNSLRPDDTAIYYCARDGRSVGGFSGILDPWGQGTLVTVSS VL: EVVLTQSPATLSLSPGDRATLSCRASQTVGRYLAWYQQKPGQAPRLLIYDASDRATGISARFSGSGSGTDFTLTIGSLEPEDFAVYYCQQRSSWPPLTFGGGTKVEIK | 8.43
MAB319 (antibody, V domains shown) VH: QVQLVESGGGVVQPGRSLRLSCSASGFTFSDYNLHWVRQAPGKGLEWVAVISIDGSDKHHADSVKGRFTVSRDNSKNTVSLQMDSLRPEDTAVYYCARDGRSVGGYSGILDPWGQGTLVTVSS VL: EIVLTQSPATLSLSPGERATLSCRASQSVGSYLAWYQQKPGQAPRLLIYDASERATGIPARFSGSGSGTDFTLTISSLEPEDVAVYYCQQRNNWPPLTFGGGTKVEIK | 9.05
MAB338 (antibody, V domains shown) VH: QVQLVESGGGVVQPGRSLRLSCSGSGFTFSDYNLHWVRQAPGKGLEWVAVISIDGTNKHHADSVKGRFTISRDNSKNTVNLEMSRLKAEDTAVYYCVRDGRSIGGYSGIFDPWGQGTLVTVSS VL: EIVLTQSPATLSLSPGERATLSCRASQSVDRYLAWYQQKPGQAPRLLIYDASQRATGIPARFSGSGSGTDFTLAISSLEPEDVAVYYCQQRSNWPPLTFGGGTKIEIK | 8.70
I5 (antibody, V domains shown, also called intermediate 5) VH: QVQLVESGGGVVQPGRSLRLSCSASGFTFSDYNLHWVRQAPGKGLEWVAVISIDGSNKHHADSVKGRFTISRDNSKNTVNLQMNSLRAEDTAVYYCARDGRSVGGYSGILDPWGQGTLVTVSS VL: EIVLTQSPATLSLSPGERATLSCRASQSVGSYLAWYQQKPGQAPRLLIYDASERATGIPARFSGSGSGTDFTLTISSLEPEDVAVYYCQQRSNWPPLTFGGGTKVEIK | 8.26

Field: next binder
Form field: reported pKd of MAB310 (I3) (antibody, V domains shown) VH: QVQLVQSGGGVVQPGTSLRLSCAASGFMFNTYNMHWVRQAPGKGLEWVAVISNDGTYKYSADSLKGRFSISRDNSKNTLYLHMNSLRPDDTAVYYCARDGRSVGGFSGILDPWGQGTLVTVSS VL: EIVLTQSPATLSLSPGDRATLSCRASQTVGRYLAWYQQKPGQAPRLLIYDASDRATGISARFSGSGSGTDFTLTISSLEPEDFAVYYCQQRSNWPPLTFGGGTKVEIK
8.51
